Each record here notes measured pIC50.
- system-under-test: MAPK14 (human) (UniProt Q16539)
- Sequence (Q16539 whole entry, looked up): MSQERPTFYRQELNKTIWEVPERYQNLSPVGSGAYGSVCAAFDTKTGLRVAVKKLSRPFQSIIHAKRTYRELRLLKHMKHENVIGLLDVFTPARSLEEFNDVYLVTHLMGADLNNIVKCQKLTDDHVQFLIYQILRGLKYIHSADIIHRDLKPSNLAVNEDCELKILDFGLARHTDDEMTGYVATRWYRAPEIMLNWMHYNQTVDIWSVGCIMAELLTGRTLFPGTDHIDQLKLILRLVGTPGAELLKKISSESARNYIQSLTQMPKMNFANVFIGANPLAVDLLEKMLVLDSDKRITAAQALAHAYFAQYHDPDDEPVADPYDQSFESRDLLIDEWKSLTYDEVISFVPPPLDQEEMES
- experimental-details: In vitro Inhibition of VEGF Stimulated MAPK Activation
pIC50: −log10 of the molar value.
measured-property: pIC50

{"smiles-str": "COc1ccccc1NC(=O)Nc1ccc(Oc2ncnc3cc(OC)c(OC)cc23)cc1F", "measured-property": "pIC50", "reported-relation": ">", "value-reported": 9.00}
{"smiles-str": "C#CCNC(=O)Nc1ccc(Oc2ccnc3cc(OC)c(OC)cc23)cc1F", "measured-property": "pIC50", "reported-relation": "=", "value-reported": 8.28}
{"smiles-str": "COc1ccccc1NC(=O)Nc1ccc(Oc2ccnc3cc(OC)c(OC)cc23)c(C)c1C", "measured-property": "pIC50", "reported-relation": "=", "value-reported": 8.77}
{"smiles-str": "COCCOc1cc2nccc(Oc3cc(C)c(NC(=O)Nc4ccccc4OC)cc3C)c2cc1OC", "measured-property": "pIC50", "reported-relation": "=", "value-reported": 8.24}
{"smiles-str": "CCCCNC(=O)Nc1ccc(Oc2ncnc3cc(OC)c(OC)cc23)cc1F", "measured-property": "pIC50", "reported-relation": "=", "value-reported": 7.35}
{"smiles-str": "COc1cc2nccc(Oc3ccc(NC(=O)Nc4ccccn4)c(C)c3C)c2cc1OC", "measured-property": "pIC50", "reported-relation": "=", "value-reported": 8.46}
{"smiles-str": "COc1cc2nccc(Oc3ccc(NC(=O)NCc4ccc(F)cc4F)c(F)c3)c2cc1OC", "measured-property": "pIC50", "reported-relation": "=", "value-reported": 8.74}
{"smiles-str": "CCCNC(=O)Nc1ccc(Oc2ncnc3cc(OC)c(OC)cc23)c(C)c1", "measured-property": "pIC50", "reported-relation": "=", "value-reported": 6.29}
{"smiles-str": "COc1cc2nccc(Oc3ccc(NC(=O)Nc4ccccc4C)c(C)c3C)c2cc1OC", "measured-property": "pIC50", "reported-relation": "=", "value-reported": 8.60}
{"smiles-str": "CCCNC(=O)Nc1ccc(Oc2ccnc3cc(OC)c(OC)cc23)cc1Cl", "measured-property": "pIC50", "reported-relation": "=", "value-reported": 8.66}
{"smiles-str": "COc1ccccc1NC(=O)Nc1ccc(Oc2ccnc3cc(OC)c(OC)cc23)cc1Cl", "measured-property": "pIC50", "reported-relation": "=", "value-reported": 9.22}
{"smiles-str": "COc1cc2nccc(Oc3ccc(NC(=O)Nc4ccccc4C)c(Cl)c3)c2cc1OC", "measured-property": "pIC50", "reported-relation": "=", "value-reported": 9.22}
{"smiles-str": "COc1cc2nccc(Oc3cc(C)c(NC(=O)Nc4ccc(F)cc4C)cc3C)c2cc1OC", "measured-property": "pIC50", "reported-relation": "=", "value-reported": 7.92}
{"smiles-str": "COc1ccccc1NC(=O)Nc1ccc(Oc2ncnc3cc(OC)c(OC)cc23)cc1Cl", "measured-property": "pIC50", "reported-relation": "=", "value-reported": 9.22}
{"smiles-str": "COc1cc2nccc(Oc3ccc(NC(=O)Nc4ccc(F)cc4F)c([N+](=O)[O-])c3)c2cc1OC", "measured-property": "pIC50", "reported-relation": "=", "value-reported": 9.30}
{"smiles-str": "COc1cc2ncnc(Oc3ccc(NC(=O)NCc4ccc(F)cc4F)c(Cl)c3)c2cc1OC", "measured-property": "pIC50", "reported-relation": "=", "value-reported": 8.42}
{"smiles-str": "COc1ccc(NC(=O)Nc2cc(C)c(Oc3ccnc4cc(OC)c(OC)cc34)cc2C)c(OC)n1", "measured-property": "pIC50", "reported-relation": "=", "value-reported": 8.70}

meta.source: the Kinase Knowledgebase extract (Sharma et al. 2016)
